Test: Rat pharmacokinetics
Conditions: male, Sprague Dawley, in vivo, iv, 5 mg/kg
measured_metric: clearance (mL/min/kg)

[[record]]
structure_smiles_string = "Cc1n[nH]c2ncc(-c3cncc(NC4CCN(C)CC4)n3)cc12"
value = 123


----------
Assay: in vivo
Conditions: male, Sprague Dawley, rat, iv, 5 mg/kg
measured_metric: Vd

[[record]]
compound = "Cc1n[nH]c2ncc(-c3cncc(N(C)CC4CCOCC4)n3)cc12"
value = "15.2 L/kg"

[[record]]
compound = "c1ccc2c(c1)CCN2c1cncc(-c2cnc3[nH]ccc3c2)n1"
value = "15.2 L/kg"

[[record]]
compound = "Cc1n[nH]c2ncc(-c3cncc(N4CCOCC4)n3)cc12"
value = "15.2 L/kg"

[[record]]
compound = "Cc1n[nH]c2ncc(-c3cncc(NC4CCN(C)CC4)n3)cc12.Cl [13 HCl]"
value = "15.2 L/kg"

[[record]]
compound = "c1cc2cc(-c3cncc(N4CCOCC4)n3)cnc2[nH]1"
value = "15.2 L/kg"


----------
Target: DYRK1A (Homo sapiens (Human), UniProt Q13627)
pIC50: −log10 of the molar value.
Reported values of pIC50 for individual entries
measured_metric: pIC50

[[record]]
compound = "Cc1n[nH]c2ncc(-c3cccc(NC4CCN(C)CC4)c3)cc12"
assayed_system = "DYRK1A (Homo sapiens (Human), UniProt Q13627)"
value = "< 6.00"

[[record]]
compound = "Cc1n[nH]c2ncc(-c3cncc(Nc4cccc(N5CCCC5=O)c4)n3)cc12"
assayed_system = "DYRK1A (Homo sapiens (Human), UniProt Q13627)"
value = "< 6.30"

[[record]]
compound = "Cc1n[nH]c2ncc(-c3cncc(NC4CCN(C)C4)n3)cc12 (stereo not drawn)"
assayed_system = "DYRK1A (Homo sapiens (Human), UniProt Q13627)"
value = "< 6.00"

[[record]]
compound = "CN(CC1CCOCC1)c1cncc(-c2cnc3[nH]ccc3c2)n1"
assayed_system = "DYRK1A (Homo sapiens (Human), UniProt Q13627)"
value = "> 6.30"

[[record]]
compound = "c1cc2cc(-c3cncc(N4CCOCC4)n3)cnc2[nH]1"
assayed_system = "DYRK1A (Homo sapiens (Human), UniProt Q13627)"
value = "> 6.30"

[[record]]
compound = "Cc1n[nH]c2ncc(-c3cncc(NC4CCN(CCO)CC4)n3)cc12"
assayed_system = "DYRK1A (Homo sapiens (Human), UniProt Q13627)"
value = "> 6.30"

[[record]]
compound = "CN1CCN(Cc2cccc(-c3cnc4[nH]ccc4c3)c2)CC1"
assayed_system = "DYRK1A (Homo sapiens (Human), UniProt Q13627)"
value = "> 6.30"

[[record]]
compound = "Cc1n[nH]c2ncc(-c3cncc(NC4CCN(C)CC4)n3)cc12"
assayed_system = "DYRK1A (Homo sapiens (Human), UniProt Q13627)"
value = "> 6.30"

[[record]]
compound = "Cc1n[nH]c2ncc(-c3cncc(NCCN(C)C)n3)cc12"
assayed_system = "DYRK1A (Homo sapiens (Human), UniProt Q13627)"
value = "< 6.00"


----------
Reported values of IC50 for individual entries
Biological target: DYRK1A (Homo sapiens (Human), UniProt Q13627)
measured_metric: IC50

[[record]]
structure_smiles_string = "c1cnc(N2CCCC2)c(-c2cnc3[nH]ccc3c2)n1"
assayed_system = "DYRK1A (Homo sapiens (Human), UniProt Q13627)"
value = "> 500 nM"

[[record]]
structure_smiles_string = "Cc1n[nH]c2ncc(-c3cnn(C)c3)cc12"
assayed_system = "DYRK1A (Homo sapiens (Human), UniProt Q13627)"
value = "> 500 nM"

[[record]]
structure_smiles_string = "FC1(F)CCN(c2cncc(-c3cnc4[nH]ccc4c3)n2)C1"
assayed_system = "DYRK1A (Homo sapiens (Human), UniProt Q13627)"
value = "> 500 nM"

[[record]]
structure_smiles_string = "OCCN1CCN(c2cncc(-c3cnc4[nH]ccc4c3)n2)CC1"
assayed_system = "DYRK1A (Homo sapiens (Human), UniProt Q13627)"
value = "< 500 nM"

[[record]]
structure_smiles_string = "Cc1n[nH]c2ncc(-c3cncc(NC4CCN(C(C)C)CC4)n3)cc12"
assayed_system = "DYRK1A (Homo sapiens (Human), UniProt Q13627)"
value = "> 500 nM"

[[record]]
structure_smiles_string = "c1ccc2c(c1)CCN2c1cncc(-c2cnc3[nH]ccc3c2)n1"
assayed_system = "DYRK1A (Homo sapiens (Human), UniProt Q13627)"
value = "< 500 nM"

[[record]]
structure_smiles_string = "Cc1n[nH]c2ncc(-c3cncc(N4CCNC(=O)C4)n3)cc12"
assayed_system = "DYRK1A (Homo sapiens (Human), UniProt Q13627)"
value = "> 500 nM"

[[record]]
structure_smiles_string = "Cc1n[nH]c2ncc(-c3cncc(OCCN4CCN(C)CC4)n3)cc12"
assayed_system = "DYRK1A (Homo sapiens (Human), UniProt Q13627)"
value = "> 500 nM"

[[record]]
structure_smiles_string = "Cc1n[nH]c2ncc(-c3cncc(N4CCOCC4)n3)cc12"
assayed_system = "DYRK1A (Homo sapiens (Human), UniProt Q13627)"
value = "< 500 nM"

